Target: T1, EsCas13d, nuclease-dead (Eubacterium siraeum, UniProt B0MS50, R295A;H300A;R849A;H854A)
T1 sequence: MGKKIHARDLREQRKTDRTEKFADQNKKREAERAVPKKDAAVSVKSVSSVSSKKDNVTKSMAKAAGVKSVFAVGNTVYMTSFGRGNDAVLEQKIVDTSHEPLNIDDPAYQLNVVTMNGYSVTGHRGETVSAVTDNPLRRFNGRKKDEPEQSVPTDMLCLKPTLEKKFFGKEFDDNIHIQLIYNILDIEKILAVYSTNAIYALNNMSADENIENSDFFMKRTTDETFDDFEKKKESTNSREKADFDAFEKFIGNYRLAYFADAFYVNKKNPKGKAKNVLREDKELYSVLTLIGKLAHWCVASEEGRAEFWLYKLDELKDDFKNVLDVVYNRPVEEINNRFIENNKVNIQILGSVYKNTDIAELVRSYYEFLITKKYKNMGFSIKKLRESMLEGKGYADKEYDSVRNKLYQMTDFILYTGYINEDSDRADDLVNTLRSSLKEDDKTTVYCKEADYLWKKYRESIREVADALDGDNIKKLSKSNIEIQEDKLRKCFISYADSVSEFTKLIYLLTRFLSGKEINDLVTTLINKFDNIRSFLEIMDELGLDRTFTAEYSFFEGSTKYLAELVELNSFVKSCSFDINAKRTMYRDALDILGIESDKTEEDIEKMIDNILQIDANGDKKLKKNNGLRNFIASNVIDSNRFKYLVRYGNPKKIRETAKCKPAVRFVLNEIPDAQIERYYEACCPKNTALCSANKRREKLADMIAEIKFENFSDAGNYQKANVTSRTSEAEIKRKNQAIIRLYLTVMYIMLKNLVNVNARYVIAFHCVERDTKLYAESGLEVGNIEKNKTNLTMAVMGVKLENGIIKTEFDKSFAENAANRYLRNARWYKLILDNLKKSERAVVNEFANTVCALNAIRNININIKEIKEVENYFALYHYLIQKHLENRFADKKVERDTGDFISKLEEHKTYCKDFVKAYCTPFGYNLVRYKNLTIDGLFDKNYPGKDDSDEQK
Assay: crRNA (strand 1, pre-loaded); Mg2+; 40 mM Tris-HCl pH 7.5, 150 mM NaCl, 6 mM MgCl2, 1 mM DTT, 0.1% Tween-20, 0.2 mg/ml BSA; 25 C; 10 min per concentration, then washed
Details: tags: His6-TwinStrep-SUMO cleaved; N-terminal SNAP kept (SNAP-Surface 488); label: 3' end held by stalled T7 RNA polymerase
outcome.measure: Kd (nM)
One number for each entry, in nM.

# map each binder to its Kd
1. target 3 G3C,U7A (mixed) RNA 1: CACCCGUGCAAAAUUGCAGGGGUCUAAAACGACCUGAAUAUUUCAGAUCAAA RNA 2: GGGAAUGGAUCCACAUCUACGAAUUCGUUUUUGAUCUGAAAUAUACAGCUCUGCAGAUCGGAAGAGCACACGU
2. target 1 insG 3' of 16,insA 3' of 5 (mixed) RNA 1: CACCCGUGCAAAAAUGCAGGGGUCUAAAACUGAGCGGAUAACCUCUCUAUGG RNA 2: GGGAAUGGAUCCACAUCUACGAAUUCGUACCAUAGAGGAGGUUAUCCGACUCACCGAGAUCGGAAGAGCACACGU

Response line:
1. 32.9
2. 23.5

# map each binder to its Kd
1. target 2 MT 5'PFS CAC 3'PFS UUC (mixed) RNA 1: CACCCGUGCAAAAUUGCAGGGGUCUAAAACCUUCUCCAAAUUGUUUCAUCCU RNA 2: GGGAAUGGAUCCACAUCUACGAAUUCCACAGGAUGAAACAAUUUGGAGAAGUUCAGAUCGGAAGAGCACACGU
2. target 1 MT 5'PFS GCU 3'PFS AGA (mixed) RNA 1: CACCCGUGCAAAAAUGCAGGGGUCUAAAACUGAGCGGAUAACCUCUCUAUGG RNA 2: GGGAAUGGAUCCACAUCUACGAAUUCGCUCCAUAGAGAGGUUAUCCGCUCAAGAAGAUCGGAAGAGCACACGU

Response line:
5.2
56
